Hello, the source for this data is ChEMBL document CHEMBL1122644, in case you need it.

MEASUREMENT TARGET: Estrogen receptor (Mus musculus) (UniProt O08537+P19785)
Sequence (O08537 whole entry, looked up): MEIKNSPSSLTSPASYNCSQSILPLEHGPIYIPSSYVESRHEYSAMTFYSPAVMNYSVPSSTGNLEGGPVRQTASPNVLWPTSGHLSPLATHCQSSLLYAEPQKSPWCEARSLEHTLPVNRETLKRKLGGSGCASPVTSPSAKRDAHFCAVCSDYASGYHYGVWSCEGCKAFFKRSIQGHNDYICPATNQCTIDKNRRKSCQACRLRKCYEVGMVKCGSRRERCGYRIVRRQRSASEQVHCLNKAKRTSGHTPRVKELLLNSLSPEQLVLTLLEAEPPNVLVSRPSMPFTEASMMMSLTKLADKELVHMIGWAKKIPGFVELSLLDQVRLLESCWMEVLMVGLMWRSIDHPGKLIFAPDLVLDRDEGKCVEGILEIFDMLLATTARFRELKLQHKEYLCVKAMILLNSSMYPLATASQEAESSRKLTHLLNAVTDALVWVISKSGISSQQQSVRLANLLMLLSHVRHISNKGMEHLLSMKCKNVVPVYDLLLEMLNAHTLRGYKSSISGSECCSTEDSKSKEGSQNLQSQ
Sequence (P19785 whole entry, looked up): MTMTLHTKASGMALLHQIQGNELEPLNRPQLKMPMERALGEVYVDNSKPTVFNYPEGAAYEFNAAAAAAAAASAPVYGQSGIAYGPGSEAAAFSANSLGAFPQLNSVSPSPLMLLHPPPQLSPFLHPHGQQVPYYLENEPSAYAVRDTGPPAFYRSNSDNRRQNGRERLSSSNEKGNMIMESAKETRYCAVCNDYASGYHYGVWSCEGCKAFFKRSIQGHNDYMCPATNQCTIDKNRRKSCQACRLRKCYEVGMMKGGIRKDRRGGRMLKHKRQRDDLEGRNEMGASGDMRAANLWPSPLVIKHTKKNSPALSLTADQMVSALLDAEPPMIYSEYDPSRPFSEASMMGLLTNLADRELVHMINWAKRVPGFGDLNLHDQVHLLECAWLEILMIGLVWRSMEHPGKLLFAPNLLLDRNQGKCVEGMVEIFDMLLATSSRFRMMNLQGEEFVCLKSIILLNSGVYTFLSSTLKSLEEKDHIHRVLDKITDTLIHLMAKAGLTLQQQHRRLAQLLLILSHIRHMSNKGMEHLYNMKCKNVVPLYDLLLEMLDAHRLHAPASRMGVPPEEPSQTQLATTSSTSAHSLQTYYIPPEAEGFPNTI
TEST NAME: Estrogenic activity in mouse uterotrophic assay at 100 ug
Type: functional
Design: unit not given here
Below is a list of entries, each paired with its recorded Activity value.
MEASURE: Activity

| COMPOUND | MEASUREMENT TARGET | MEASURE | RECORDED VALUE |
| --- | --- | --- | --- |
| CCC(c1ccc(C)c(O)c1)C(CC)c1ccc(C)c(O)c1 (stereo not given) | Estrogen receptor (Mus musculus) (UniProt O08537+P19785) | Activity | 46.2 |
| CCC(c1cc(O)ccc1Cl)C(CC)c1cc(O)ccc1Cl (stereo not given) | Estrogen receptor (Mus musculus) (UniProt O08537+P19785) | Activity | 41.6 |
| CCC(c1cc(O)ccc1F)C(CC)c1cc(O)ccc1F (stereo not given) | Estrogen receptor (Mus musculus) (UniProt O08537+P19785) | Activity | 39 |
| CCC(c1ccc(N)c(O)c1)C(CC)c1ccc(N)c(O)c1 (stereo not given) | Estrogen receptor (Mus musculus) (UniProt O08537+P19785) | Activity | 19.5 |
| CCC(c1cc(O)ccc1C)C(CC)c1cc(O)ccc1C (stereo not given) | Estrogen receptor (Mus musculus) (UniProt O08537+P19785) | Activity | 52.1 |
